Tested on: 883617-216-R-J1-PDC tumor spheroids, viability
Experiment: Anticancer human tumor 883617-216-R-J1-PDC patient-derived bladder carcinoma cell line growth inhibition [PI3K]
Settings: second compound 0.1 µM; first compound 1 µM; stronger effect = lower value; spheroids with HUVEC and MSC
Criterion: viability, T/C strictly less than 80%. Met: satisfied. Not met: not satisfied.

Prompt line: In the record for CCCS(=O)(=O)Nc1ccc(F)c(C(=O)c2c[nH]c3ncc(-c4ccc(Cl)cc4)cc23)c1F + Cc1nc(NC(=O)N2CCCC2C(N)=O)sc1-c1ccnc(C(C)(C)C(F)(F)F)c1 , is viability, T/C less than 80%?
Response line: satisfied

Prompt line: In the record for CCN1CCN(Cc2ccc(Nc3ncc(F)c(-c4cc(F)c5nc(C)n(C(C)C)c5c4)n3)nc2)CC1 + Cc1nc(NC(=O)N2CCCC2C(N)=O)sc1-c1ccnc(C(C)(C)C(F)(F)F)c1 , is viability, T/C less than 80%?
Response line: satisfied

Prompt line: In the record for CNC(=O)c1ccc(N2C(=S)N(c3ccc(C#N)c(C(F)(F)F)c3)C(=O)C2(C)C)cc1F + COc1c(OCCCN2CCOCC2)ccc2c3n(c(=NC(=O)c4cnc(N)nc4)nc12)CCN3 , is viability, T/C less than 80%?
Response line: satisfied

Prompt line: In the record for CC(Cn1ccc(-c2ccc(C#N)c(Cl)c2)n1)NC(=O)c1cc(C(C)O)[nH]n1 (stereo unspecified) + CC(Nc1ncnc2nc[nH]c12)c1cc2cccc(Cl)c2c(=O)n1-c1ccccc1 , is viability, T/C less than 80%?
Response line: not satisfied

Prompt line: In the record for CC1(C)CCC(CN2CCN(c3ccc(C(=O)NS(=O)(=O)c4ccc(NCC5CCOCC5)c([N+](=O)[O-])c4)c(Oc4cnc5[nH]ccc5c4)c3)CC2)=C(c2ccc(Cl)cc2)C1 + CC(Nc1ncnc2nc[nH]c12)c1cc2cccc(Cl)c2c(=O)n1-c1ccccc1 , is viability, T/C less than 80%?
Response line: not satisfied

Prompt line: In the record for Cn1nccc1Nc1nccc(-c2ccn(C(CO)c3ccc(Cl)c(F)c3)c(=O)c2)n1 (stereo unspecified) + COc1c(OCCCN2CCOCC2)ccc2c3n(c(=NC(=O)c4cnc(N)nc4)nc12)CCN3 , is viability, T/C less than 80%?
Response line: satisfied

Prompt line: In the record for CC1(C)CCC(Nc2ncc(C(F)(F)F)c(-c3c[nH]c4c(P(C)(C)=O)c(C#N)ccc34)n2)CN1 (stereo unspecified) + CC(Nc1ccc2c(c1)OCCn1cc(N3C(=O)OCC3C(F)F)nc1-2)C(N)=O , is viability, T/C less than 80%?
Response line: satisfied

Prompt line: In the record for C#Cc1c(F)ccc2cc(O)cc(-c3ncc4c(N5CC6CCC(C5)N6)nc(OCC56CCCN5CC(F)C6)nc4c3F)c12 (stereo unspecified) + CC(Nc1ccc2c(c1)OCCn1cc(N3C(=O)OCC3C(F)F)nc1-2)C(N)=O , is viability, T/C less than 80%?
Response line: satisfied

Prompt line: In the record for CC(Cn1ccc(-c2ccc(C#N)c(Cl)c2)n1)NC(=O)c1cc(C(C)O)[nH]n1 (stereo unspecified) + COc1c(OCCCN2CCOCC2)ccc2c3n(c(=NC(=O)c4cnc(N)nc4)nc12)CCN3 , is viability, T/C less than 80%?
Response line: satisfied

Prompt line: In the record for C[C@@H](NC(=O)c1ncnc(N)c1Cl)c1ncc(C(=O)Nc2cc(C(F)(F)F)c(Cl)cn2)s1 + CC(Nc1ncnc2nc[nH]c12)c1cc2cccc(Cl)c2c(=O)n1-c1ccccc1 , is viability, T/C less than 80%?
Response line: not satisfied

* * *

System: 883617-216-R-J1-PDC tumor spheroids, viability
Assay: Anticancer human tumor 883617-216-R-J1-PDC cell line growth inhibition [PI3K];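 further: spheroids exposed to agents for 7 days before the viability read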
Conditions: second compound 0.00316 µM; first compound 3.16 µM; stronger effect = lower value; spheroids with HUVEC and MSC
Please respond with reported viability, T/C for every item in the list.
Numeric only. Scale: %

Prompt line: Return value of viability, T/C for input CC(C)NCC(C(=O)N1CCN(c2ncnc3c2C(C)CC3O)CC1)c1ccc(Cl)cc1 (configuration not stated) + CC(Nc1ccc2c(c1)OCCn1cc(N3C(=O)OCC3C(F)F)nc1-2)C(N)=O , no commentary.
Response line: 15.1

Prompt line: Return value of viability, T/C for input CC(C)NCC(C(=O)N1CCN(c2ncnc3c2C(C)CC3O)CC1)c1ccc(Cl)cc1 (configuration not stated) + COc1c(OCCCN2CCOCC2)ccc2c3n(c(=NC(=O)c4cnc(N)nc4)nc12)CCN3 , no commentary.
Response line: 18.4

Prompt line: Return value of viability, T/C for input C[C@@H](NC(=O)c1ncnc(N)c1Cl)c1ncc(C(=O)Nc2cc(C(F)(F)F)c(Cl)cn2)s1 + COc1c(OCCCN2CCOCC2)ccc2c3n(c(=NC(=O)c4cnc(N)nc4)nc12)CCN3 , no commentary.
Response line: 70.9

Prompt line: Return value of viability, T/C for input C#Cc1c(F)ccc2cc(O)cc(-c3ncc4c(N5CC6CCC(C5)N6)nc(OCC56CCCN5CC(F)C6)nc4c3F)c12 (configuration not stated) + COc1c(OCCCN2CCOCC2)ccc2c3n(c(=NC(=O)c4cnc(N)nc4)nc12)CCN3 , no commentary.
Response line: 80

Prompt line: Return value of viability, T/C for input CC1(C)CCC(Nc2ncc(C(F)(F)F)c(-c3c[nH]c4c(P(C)(C)=O)c(C#N)ccc34)n2)CN1 (configuration not stated) + COc1c(OCCCN2CCOCC2)ccc2c3n(c(=NC(=O)c4cnc(N)nc4)nc12)CCN3 , no commentary.
Response line: 13.7

Prompt line: Return value of viability, T/C for input CC(Cn1ccc(-c2ccc(C#N)c(Cl)c2)n1)NC(=O)c1cc(C(C)O)[nH]n1 (configuration not stated) + CC(Nc1ccc2c(c1)OCCn1cc(N3C(=O)OCC3C(F)F)nc1-2)C(N)=O , no commentary.
Response line: 90.8

Prompt line: Return value of viability, T/C for input C[C@@H](NC(=O)c1ncnc(N)c1Cl)c1ncc(C(=O)Nc2cc(C(F)(F)F)c(Cl)cn2)s1 + CC(Nc1ccc2c(c1)OCCn1cc(N3C(=O)OCC3C(F)F)nc1-2)C(N)=O , no commentary.
Response line: 80

Prompt line: Return value of viability, T/C for input CCCS(=O)(=O)Nc1ccc(F)c(C(=O)c2c[nH]c3ncc(-c4ccc(Cl)cc4)cc23)c1F + COc1c(OCCCN2CCOCC2)ccc2c3n(c(=NC(=O)c4cnc(N)nc4)nc12)CCN3 , no commentary.
Response line: 61.7

Prompt line: Return value of viability, T/C for input CC1(C)CCC(Nc2ncc(C(F)(F)F)c(-c3c[nH]c4c(P(C)(C)=O)c(C#N)ccc34)n2)CN1 (configuration not stated) + CC(Nc1ccc2c(c1)OCCn1cc(N3C(=O)OCC3C(F)F)nc1-2)C(N)=O , no commentary.
Response line: 6.49

Prompt line: Return value of viability, T/C for input C=CC(=O)N1CCN(c2nc(=O)n(-c3c(C)ccnc3C(C)C)c3nc(-c4c(O)cccc4F)c(F)cc23)C(C)C1 (configuration not stated) + CC(Nc1ccc2c(c1)OCCn1cc(N3C(=O)OCC3C(F)F)nc1-2)C(N)=O , no commentary.
Response line: 70.8

Prompt line: Return value of viability, T/C for input CC(Cn1ccc(-c2ccc(C#N)c(Cl)c2)n1)NC(=O)c1cc(C(C)O)[nH]n1 (configuration not stated) + COc1c(OCCCN2CCOCC2)ccc2c3n(c(=NC(=O)c4cnc(N)nc4)nc12)CCN3 , no commentary.
Response line: 83.8

Prompt line: Return value of viability, T/C for input CNC(=O)c1ccc(N2C(=S)N(c3ccc(C#N)c(C(F)(F)F)c3)C(=O)C2(C)C)cc1F + CC(Nc1ccc2c(c1)OCCn1cc(N3C(=O)OCC3C(F)F)nc1-2)C(N)=O , no commentary.
Response line: 82.2

* * *

Tested on: 883617-216-R-J1-PDC tumor spheroids, viability
Experiment: Anticancer human tumor 883617-216-R-J1-PDC cell line growth inhibition [PI3K];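 further: spheroids exposed to agents for 7 days before the viability read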
Conditions: second compound 10 µM; first compound 0.0316 µM; stronger effect = lower value; spheroids with HUVEC and MSC
From the text: Combinatorial screen of targeted agents with the PI3K inhibitors inavolisib, alpelisib, duvelisib, and copanlisib in multi-cell type tumor spheroids A high-throughput screen of multi-cell type tumor spheroids was designed to identify active combinations of targeted small molecules and PI3K pathway inhibitors. […] Compounds. […] If the clinical Cmax for an agent had not been determined, the highest concentration tested was 10 microM. […]
Please respond with reported viability, T/C for every item in the list.
Numeric only. Scale: %

Prompt line: Return value of viability, T/C for input CCCS(=O)(=O)Nc1ccc(F)c(C(=O)c2c[nH]c3ncc(-c4ccc(Cl)cc4)cc23)c1F + Cc1nc(NC(=O)N2CCCC2C(N)=O)sc1-c1ccnc(C(C)(C)C(F)(F)F)c1 , no commentary.
Response line: 7.33

Prompt line: Return value of viability, T/C for input CC1(C)CCC(CN2CCN(c3ccc(C(=O)NS(=O)(=O)c4ccc(NCC5CCOCC5)c([N+](=O)[O-])c4)c(Oc4cnc5[nH]ccc5c4)c3)CC2)=C(c2ccc(Cl)cc2)C1 + Cc1nc(NC(=O)N2CCCC2C(N)=O)sc1-c1ccnc(C(C)(C)C(F)(F)F)c1 , no commentary.
Response line: 7.93

Prompt line: Return value of viability, T/C for input CC1(C)CCC(Nc2ncc(C(F)(F)F)c(-c3c[nH]c4c(P(C)(C)=O)c(C#N)ccc34)n2)CN1 (stereo not given) + CC(Nc1ncnc2nc[nH]c12)c1cc2cccc(Cl)c2c(=O)n1-c1ccccc1 , no commentary.
Response line: 25.7

Prompt line: Return value of viability, T/C for input CCCS(=O)(=O)Nc1ccc(F)c(C(=O)c2c[nH]c3ncc(-c4ccc(Cl)cc4)cc23)c1F + CC(Nc1ncnc2nc[nH]c12)c1cc2cccc(Cl)c2c(=O)n1-c1ccccc1 , no commentary.
Response line: 52.9

Prompt line: Return value of viability, T/C for input Cn1ncc(Cl)c1-c1cc(C(=O)NC(CN)Cc2cccc(F)c2)sc1Cl (stereo not given) + Cc1nc(NC(=O)N2CCCC2C(N)=O)sc1-c1ccnc(C(C)(C)C(F)(F)F)c1 , no commentary.
Response line: 9.56

Prompt line: Return value of viability, T/C for input CNC(=O)c1ccc(N2C(=S)N(c3ccc(C#N)c(C(F)(F)F)c3)C(=O)C2(C)C)cc1F + CC(Nc1ncnc2nc[nH]c12)c1cc2cccc(Cl)c2c(=O)n1-c1ccccc1 , no commentary.
Response line: 50.8

Prompt line: Return value of viability, T/C for input C#Cc1c(F)ccc2cc(O)cc(-c3ncc4c(N5CC6CCC(C5)N6)nc(OCC56CCCN5CC(F)C6)nc4c3F)c12 (stereo not given) + CC(Nc1ncnc2nc[nH]c12)c1cc2cccc(Cl)c2c(=O)n1-c1ccccc1 , no commentary.
Response line: 52.1

Prompt line: Return value of viability, T/C for input CNC(=O)c1ccc(N2C(=S)N(c3ccc(C#N)c(C(F)(F)F)c3)C(=O)C2(C)C)cc1F + Cc1nc(NC(=O)N2CCCC2C(N)=O)sc1-c1ccnc(C(C)(C)C(F)(F)F)c1 , no commentary.
Response line: 8.45

Prompt line: Return value of viability, T/C for input Cn1nccc1Nc1nccc(-c2ccn(C(CO)c3ccc(Cl)c(F)c3)c(=O)c2)n1 (stereo not given) + Cc1nc(NC(=O)N2CCCC2C(N)=O)sc1-c1ccnc(C(C)(C)C(F)(F)F)c1 , no commentary.
Response line: 5.74

Prompt line: Return value of viability, T/C for input CCN1CCN(Cc2ccc(Nc3ncc(F)c(-c4cc(F)c5nc(C)n(C(C)C)c5c4)n3)nc2)CC1 + Cc1nc(NC(=O)N2CCCC2C(N)=O)sc1-c1ccnc(C(C)(C)C(F)(F)F)c1 , no commentary.
Response line: 5.3
